- tgt: wild-type human melanocortin 4 receptor (WT-hMC4R) (Homo sapiens, UniProt P32245)
- Construct: cDNA from UMR cDNA resource center
- Sequence (P32245 whole entry): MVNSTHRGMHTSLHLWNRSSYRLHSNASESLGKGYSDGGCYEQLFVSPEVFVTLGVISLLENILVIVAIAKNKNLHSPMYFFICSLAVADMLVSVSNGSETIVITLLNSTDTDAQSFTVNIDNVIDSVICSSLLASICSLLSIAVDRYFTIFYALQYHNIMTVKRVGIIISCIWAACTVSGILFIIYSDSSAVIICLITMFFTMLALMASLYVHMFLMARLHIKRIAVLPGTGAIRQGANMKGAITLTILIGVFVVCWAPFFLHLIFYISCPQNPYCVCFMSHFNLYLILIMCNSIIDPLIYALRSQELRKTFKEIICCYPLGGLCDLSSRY
- assay text: Cyclic AMP assay (HTRF), antagonist competition against NDP-α-MSH
- setup conditions: HEK293T cells expressing double-tagged WT-hMC4R; cAMP accumulation; 1 hour compound then 4 nM NDP-α-MSH 30 min
Reported IC50 values for the following compounds.

1) CC(C)CCN(CCC(C)C)C(=O)c1ccn2nc(-c3cccc(C#N)c3)c(CCCN3CCCCC3)c2c1 [Example 92]: < 0.5 µM
2) CC(C)CCN(CCC(C)C)C(=O)c1ccn2nc(-c3ccc(C(C)(C)C)cc3)c(CCCN3CCCCC3)c2c1 [Example 4]: 1 to 5 µM
3) CCCCN(CCCC)CCCc1c(-c2ccc(OC)cc2)nn2ccc(C(=O)N(CCCC)CCCC)cc12 [Example 112]: 1 to 5 µM

Alright, here's another compound for you.
What value of IC50 has been reported for the following compound? CCCCN(CCCC)C(=O)c1ccn2nc(-c3ccc(C(C)(C)C)cc3)c(CCCN3CCCC3)c2c1 [Example 9] 5 to 15 µM

###

- tgt: wild-type human melanocortin 4 receptor (WT-hMC4R) (Homo sapiens, UniProt P32245)
- Construct: cDNA from UMR cDNA resource center
- assay text: Cyclic AMP assay (HTRF), antagonist competition against NDP-α-MSH
- setup conditions: HEK293T cells expressing double-tagged WT-hMC4R; cAMP accumulation; 1 hour compound then 4 nM NDP-α-MSH 30 min
- Experimental: Intracellular cyclic 3′-5′ adenosine monophosphate (cAMP) accumulation was measured using a competitive immunoassay based on HTRF (Homogeneous Time-Resolved Fluorescence) technology (cAMP dynamic-2, Cis-Bio). HEK293T stable cell line expressing double-tagged WT-hMC4R construct were collected and washed in cAMP buffer (1XD-PBS pH 7.4, 0.1% glucose). […] Reading of HTRF signal was performed on Artemis TR-FRET plate reader (Cosmo Bio). […]
pIC50: −log10 of the molar value.
experimental endpoint: pIC50

What value of pIC50 has been reported for the following compound? COc1ccc(-c2nn3ccc(C(=O)N(CCC(C)C)CCC(C)C)cc3c2CCCN(C)C)cc1 4.82 to 5.30

What value of pIC50 has been reported for the following compound? COc1ccc(-c2nn3ccc(C(=O)N(CCC(C)C)CCC(C)C)cc3c2CCCN2CCCC(F)C2)cc1 (stereo not drawn) 5.30 to 6.00

What value of pIC50 has been reported for the following compound? CC(C)CCN(CCC(C)C)C(=O)c1ccn2nc(-c3ccc(C(C)(C)C)cc3)c(/C=C/CN3CCCC3)c2c1 5.30 to 6.00

What value of pIC50 has been reported for the following compound? COc1ccc(-c2nn3ccc(C(=O)N(CCC(C)C)CCC(C)C)cc3c2CCCN)cc1 4.82 to 5.30

###

- tgt: wild-type human melanocortin 4 receptor (WT-hMC4R) (Homo sapiens, UniProt P32245)
- Construct: cDNA from UMR cDNA resource center
- assay text: Cyclic AMP assay (HTRF), antagonist competition against NDP-α-MSH
- setup conditions: HEK293T cells expressing double-tagged WT-hMC4R; cAMP accumulation; 1 hour compound then 4 nM NDP-α-MSH 30 min
- Description: Intracellular cyclic 3′-5′ adenosine monophosphate (cAMP) accumulation was measured using a competitive immunoassay based on HTRF (Homogeneous Time-Resolved Fluorescence) technology (cAMP dynamic-2, Cis-Bio). HEK293T stable cell line expressing double-tagged WT-hMC4R construct were collected and washed in cAMP buffer (1XD-PBS pH 7.4, 0.1% glucose). […] Reading of HTRF signal was performed on Artemis TR-FRET plate reader (Cosmo Bio). […]
Reported IC50 values for the following molecules.

The examples below pair each entry with its known result.
1) CC(C)CCN(CCC(C)C)C(=O)c1ccn2nc(-c3ccc(C(C)O)cc3)c(CCCN3CCCCC3)c2c1 (stereo not drawn) [Example 46]: < 0.5 µM
2) CC(C)CCN(CCC(C)C)C(=O)c1ccn2nc(-c3ccc(OCc4ccccc4)cc3)c(/C=C/CN3CCCCC3)c2c1 [Example 76]: 1 to 5 µM
3) CC(C)CCN(CCC(C)C)C(=N)c1ccn2nc(-c3ccccc3)c(CCCN3CCCCC3)c2c1 [Example 127]: 0.5 to 1 µM
4) COc1ccc(-c2nn3ccc(C(=O)N(CCC(C)C)CCC(C)C)cc3c2/C=C/CN2CCC(C)CC2)cc1 [Example 145]: < 0.5 µM
5) CC(C)CCN(CCC(C)C)C(=O)c1ccn2nc(-c3cccc(C(=O)O)c3)c(/C=C/CN3CCCCC3)c2c1 [Example 73]: 1 to 5 µM
6) CC(C)CCN(CCC(C)C)C(=O)c1ccn2nc(C(=O)Nc3ccc(C(=O)N4CCOCC4)cc3)c(CCCN3CCCCC3)c2c1 [Example 133]: 5 to 15 µM

What value of IC50 has been reported for the following molecule? CCCCCN(CCCCC)C(=O)c1ccn2nc(-c3ccc(F)cc3)c(/C=C/CN3CCCCC3)c2c1 [Example 53] 1 to 5 µM

What value of IC50 has been reported for the following molecule? COc1ccc(-c2nn3ccc(C(=O)N(CCC(C)C)CCC(C)C)cc3c2CCCN2CCCCC2)cn1 [Example 164] < 0.5 µM

What value of IC50 has been reported for the following molecule? COc1cc(-c2nn3ccc(C(=O)N(CCC(C)C)CCC(C)C)cc3c2/C=C/CN2CCCCC2)cc(OC)c1OC [Example 70] < 0.5 µM

What value of IC50 has been reported for the following molecule? CC(=O)c1ccccc1-c1nn2ccc(C(=O)N(CCC(C)C)CCC(C)C)cc2c1/C=C/CN1CCCCC1 [Example 35] 1 to 5 µM

What value of IC50 has been reported for the following molecule? COc1ccc(-c2nn3ccc(C(=O)N(CCC(C)C)CCC(C)C)cc3c2/C=C/CN(C)C)cc1 [Example 17] 5 to 15 µM

What value of IC50 has been reported for the following molecule? CC(C)CCN(CCC(C)C)C(=O)c1ccn2nc(C(=O)N3CCOCC3)c(/C=C/CN3CCCCC3)c2c1 [Example 167] 5 to 15 µM

What value of IC50 has been reported for the following molecule? CCCCN(CCCC)C(=O)c1ccn2nc(-c3ccc(C(C)(C)C)cc3)c(/C=C/CN3CCCCC3)c2c1 [Example 7] 5 to 15 µM

What value of IC50 has been reported for the following molecule? COc1ccc(-c2nn3ccc(C(=O)N(CCC(C)C)CCC(C)C)cc3c2/C=C/CN2CCCCC2)cc1OC [Example 14] < 0.5 µM

What value of IC50 has been reported for the following molecule? CCCCCN(CCCCC)C(=O)c1ccn2nc(-c3ccc(F)cc3)c(CCCN3CCCCC3)c2c1 [Example 50] 1 to 5 µM

###

- tgt: wild-type human melanocortin 4 receptor (WT-hMC4R) (Homo sapiens, UniProt P32245)
- Construct: cDNA from UMR cDNA resource center
- assay text: Cyclic AMP assay (HTRF), antagonist competition against NDP-α-MSH
- setup conditions: HEK293T cells expressing double-tagged WT-hMC4R; cAMP accumulation; 1 hour compound then 4 nM NDP-α-MSH 30 min
experimental endpoint: IC50

The examples below pair each entry with its known result.
1. COC(=O)c1ccccc1-c1nn2ccc(C(=O)N(CCC(C)C)CCC(C)C)cc2c1/C=C/CN1CCCCC1: 1000 to 5000 nM
2. CC(C)CCN(CCC(C)C)C(=O)c1ccn2nc(-c3ccccc3Br)c(CCCN3CCCCC3)c2c1: 1000 to 5000 nM
3. CC(C)CCN(CCC(C)C)C(=O)c1ccn2nc(-c3ccc(C(C)(C)C)cc3)c(CCCN3CCCC3)c2c1: 1000 to 5000 nM

What value of IC50 has been reported for the following compound? COc1ccc(-c2nn3ccc(C(=O)N(CCC(C)C)CCC(C)C)nc3c2/C=C/CN2CCCC2)cc1 1000 to 5000 nM

###

Reported IC50 values for the following compounds.
- tgt: wild-type human melanocortin 4 receptor (WT-hMC4R) (Homo sapiens)
- Construct: cDNA from UMR cDNA resource center
- assay text: Cyclic AMP assay (HTRF), antagonist competition against NDP-α-MSH
- setup conditions: HEK293T cells expressing double-tagged WT-hMC4R; cAMP accumulation; 1 hour compound then 4 nM NDP-α-MSH 30 min
- Protocol: Intracellular cyclic 3′-5′ adenosine monophosphate (cAMP) accumulation was measured using a competitive immunoassay based on HTRF (Homogeneous Time-Resolved Fluorescence) technology (cAMP dynamic-2, Cis-Bio). HEK293T stable cell line expressing double-tagged WT-hMC4R construct were collected and washed in cAMP buffer (1XD-PBS pH 7.4, 0.1% glucose). […] Reading of HTRF signal was performed on Artemis TR-FRET plate reader (Cosmo Bio). […]

The examples below pair each entry with its known result.
1) COc1ccc(-c2nn3ccc(C(=O)N(CCC(C)C)CCC(C)C)cc3c2CCCN2[C@H](C)CCC[C@@H]2C)cc1: 1 to 5 µM
2) COc1ccc(-c2nn3ccc(C(=O)N(CCC(C)C)CCC(C)C)nc3c2/C=C/CN2CCCCC2)cc1: 1 to 5 µM

What value of IC50 has been reported for the following compound? CC(=O)c1cccc(-c2nn3ccc(C(=O)N(CCC(C)C)CCC(C)C)cc3c2/C=C/CN2CCCCC2)c1 0.5 to 1 µM

What value of IC50 has been reported for the following compound? CCCCCN(CCCCC)C(=O)c1ccn2nc(-c3ccc(OC)cc3)c(/C=C/CN3CCCCC3)c2c1 1 to 5 µM

What value of IC50 has been reported for the following compound? CCCCN(CCCC)C(=O)c1ccn2nc(-c3ccc(OC)cc3)c(/C=C/CN3CCCCC3)c2c1 1 to 5 µM

What value of IC50 has been reported for the following compound? CC(C)CCN(CCC(C)C)C(=O)c1ccn2nc(C(=O)N3CCOCC3)c(CCCN3CCCCC3)c2c1 5 to 15 µM

What value of IC50 has been reported for the following compound? CCCCN(CCCC)C(=O)c1ccn2nc(-c3ccc(F)cc3)c(/C=C/CN3CCCCC3)c2c1 1 to 5 µM
